Source listed as PubChem BioAssay (NCI).

system: CAKI-1 renal; assay: NCI-60 one-dose screen, 48 h (100 = growth as untreated, 0 = no growth, -100 = all killed); details: 10 µM unless noted
Compounds without any hit were thinned out: in the full panel of roughly 83,000, 20% have a hit. Activity calls are given as the source filed them. Rule for the calls: active = growth percent below 10; inactive = the rest.
Endpoint Label: growth

Compound: CCCCCCC/C=N/NC(=O)c1ccc(-n2cc(-c3ccccc3)nn2)cc1
Meas Value: 75.8% (inactive)
//
Compound: COC(=O)CNC(=O)c1ccc(NC(=O)c2[nH]c(C)c(Cl)c2Cl)c(O[C@H]2CCNC2)c1
Meas Value: 94.9% (inactive)
//
Compound: CCCN1C2CCC1/C(=C\c1ccc(OC)cc1)C(=O)/C2=C/c1ccc(OC)cc1
Meas Value: 74.4% (inactive)
//
Compound: COc1ccc(-c2csc(NC(=O)CSc3nc(C)cc(=O)[nH]3)n2)cc1
Meas Value: 109% (inactive)
//
Compound: CCOC(=O)CC1CSC(N/N=C(/C)c2cccc(C(F)(F)F)c2)=N1 (centres undefined)
Meas Value: 91.6% (inactive)
//
Compound: CN(C)CCOc1ccc(/C(=C(/CCCCCCCCCC[P+](c2ccccc2)(c2ccccc2)c2ccccc2)c2ccccc2)c2ccccc2)cc1
Meas Value: -93.2% (active)
//
Compound: COc1ccc(Nc2nccc(Nc3ccc4[nH]ncc4c3)n2)cc1
Meas Value: 38.3% (inactive)
//
Compound: COC(=O)c1cc(-c2cc(OC)c(OC)c(OC)c2)[nH]c1N/N=C/c1c(Cl)cccc1Cl
Meas Value: 7.04% (active)
//
Compound: C[C@H]1c2ccccc2CN1CCCOc1cc2c(cc1OCC1CC1)C1(CCCC1)C(N)=N2
Meas Value: 18.5% (inactive)
//
Compound: COC1=C(OC)C(=O)C(CCCCCCCCCCO)=C(C)C1=O
Meas Value: 61% (inactive)
//
Compound: COc1ccccc1NC(=O)n1c(=O)cc(C)c2ccc(O)cc21
Meas Value: 99.6% (inactive)
//
Compound: C#CCOc1ccc(C2=NN(CCCC)C3N=C(Cl)c4ncn(CCCC)c4N23)cc1OCC#C (centres undefined)
Meas Value: 74.3% (inactive)
//
Compound: COc1ccc(NC(=O)c2ccc(Cl)cc2Cl)cc1
Meas Value: 95.7% (inactive)
//
Compound: Oc1ccc(Cc2ccc(O)c3ncccc23)c2cccnc12
Meas Value: 16.2% (inactive)
//
Compound: COc1ccccc1-c1nc2ccc3[nH]ncc3c2c2c1CCCC2
Meas Value: 21.8% (inactive)
//
Compound: COc1cc(CNC(=O)CCCC/C=C/C(C)C)ccc1OCc1cn(-c2cccc([N+](=O)[O-])c2)nn1
Meas Value: 79% (inactive)
//
Compound: O=C(NCCN1CCOCC1)c1cncnc1Nc1ccc2c(ccn2Cc2ccccn2)c1
Meas Value: 92.4% (inactive)
//
Compound: CCOC(=O)c1cc(C(=O)c2cc(OC)cc(OC)c2)n2ncccc12
Meas Value: 34.1% (inactive)
//
Compound: [2H]C([2H])([2H])Oc1ccc(/C=C/C(=O)/C=C(/C=C/c2ccc(OC([2H])([2H])[2H])c(OC([2H])([2H])[2H])c2OC([2H])([2H])[2H])OB(F)F)c(OC([2H])([2H])[2H])c1OC([2H])([2H])[2H]
Meas Value: 48.6% (inactive)
